Target: human TLR9 (Homo sapiens, UniProt Q9NR96)
Sequence (Q9NR96 26-1032): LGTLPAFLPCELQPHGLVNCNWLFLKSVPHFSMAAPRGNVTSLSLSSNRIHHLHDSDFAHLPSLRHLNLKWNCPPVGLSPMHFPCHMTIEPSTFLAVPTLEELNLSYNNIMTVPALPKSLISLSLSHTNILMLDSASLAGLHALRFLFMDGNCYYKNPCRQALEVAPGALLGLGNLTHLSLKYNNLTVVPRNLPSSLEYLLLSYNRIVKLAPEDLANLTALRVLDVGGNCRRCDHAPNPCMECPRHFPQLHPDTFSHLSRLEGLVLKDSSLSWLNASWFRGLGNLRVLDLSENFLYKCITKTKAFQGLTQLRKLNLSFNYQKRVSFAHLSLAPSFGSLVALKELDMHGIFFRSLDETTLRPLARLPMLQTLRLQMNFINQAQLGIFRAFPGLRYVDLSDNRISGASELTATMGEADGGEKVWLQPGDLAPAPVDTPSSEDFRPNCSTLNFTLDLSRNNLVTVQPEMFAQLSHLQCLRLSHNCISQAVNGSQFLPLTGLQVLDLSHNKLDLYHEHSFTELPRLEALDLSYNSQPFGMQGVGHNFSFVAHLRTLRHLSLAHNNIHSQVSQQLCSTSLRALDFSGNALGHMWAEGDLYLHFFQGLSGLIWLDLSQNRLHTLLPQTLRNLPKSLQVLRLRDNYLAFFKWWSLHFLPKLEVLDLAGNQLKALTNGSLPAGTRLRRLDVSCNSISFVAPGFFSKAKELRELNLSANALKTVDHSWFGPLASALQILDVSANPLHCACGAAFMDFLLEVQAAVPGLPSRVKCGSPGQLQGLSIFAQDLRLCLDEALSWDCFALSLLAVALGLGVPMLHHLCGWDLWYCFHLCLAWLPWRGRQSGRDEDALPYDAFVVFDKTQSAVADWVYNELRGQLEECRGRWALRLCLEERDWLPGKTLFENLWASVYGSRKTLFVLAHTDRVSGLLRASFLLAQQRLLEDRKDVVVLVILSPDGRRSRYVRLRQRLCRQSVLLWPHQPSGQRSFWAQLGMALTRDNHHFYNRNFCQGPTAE
Assay: TLR9 inhibition reporter assay (HEK-Blue SEAP)
Settings: HEK-Blue cells overexpressing human TLR9, ODN2006 5 nM, 22 hour incubation
pIC50: −log10 of the molar value.
readout name: pIC50

- compound: "COc1cc(-c2cc3[nH]c(=O)n(C4CCN(CC5CC5)CC4)c3cc2C(C)C)cn2ncnc12 [Example 161]"
  target entity: "human TLR9 (Homo sapiens, UniProt Q9NR96)"
  observed measurement: 4.95

I: CCN1CCC[C@@H](n2c(=O)[nH]c3cc(-c4cc(C)c5ncnn5c4)c(C)cc32)C1 [Example 16]
II: Cc1cc2c(cc1-c1cc(C)c3ncnn3c1)[nH]c(=O)n2[C@@H]1CCCN(C(=O)CN(C)C)C1 [Example 104]
III: COc1cc(-c2cc3[nH]c(=O)n([C@@H]4CCCNC4)c3cc2C)cn2ncnc12 [1 EH]
Input: Hello, I need these entries ordered by pIC50, highest reading first. Thanks! # answer = labels listed in requested order
Output: III, II, I
